Provenance of the data: the supplement of paper PMC4723716

# System: Plasmodium falciparum NF54 gametocytes
# Test details: viability index relative to DMSO control (fraction); higher = less gametocyte killing
# Settings: gametocyte stage: Stage II viability index; 12.5 µM; incubation time: 72 h
# maps each entry to its viability index
Number only, no unit.

Study these solved cases before continuing.
O=C(Nc1cccc(C2=NCCN2)c1)Nc1cccc(C2=NCCN2)c1
0.718
CN(C)c1ccc(-c2nc3cc(N)ccc3[nH]2)cc1
0.566
OC(CNCc1ccccc1)Cn1c2ccccc2c2ccccc21 (stereo unspecified)
0.0658
CCOC(=O)C1CCN(C(=O)CN2C(=O)c3ccccc3C2c2c[nH]c3ccccc23)CC1 (stereo unspecified)
0.924
CCCCCCc1cc2cc(-c3nc4ccccc4[nH]3)c(=Nc3ccccc3C)oc2cc1O
0.138

Let us move to another entry and its viability index.
Returns the measured viability index for the input molecule. Input: O=C(NC(c1ccccc1)c1ccc2cccnc2c1O)c1ccccc1 (stereo unspecified)
0.029

###

# Test system: Plasmodium falciparum NF54 gametocytes
# Test details: viability index relative to DMSO control (fraction); higher = less gametocyte killing
# Settings: gametocyte stage: Stage III viability index; 12.5 µM; incubation time: 72 h
Assay endpoint: viability index
Number only, no unit.

Study these solved cases before continuing.
Cc1ccc(-c2cc3nc4c(c(O)n3n2)CCCC4)cc1
0.894
COc1ccc(-c2nc(NC(=O)CS(=O)(=O)c3ccc(F)cc3)sc2C)cc1
1.11
CCOC(=O)C1(Cc2ccccc2)CCN(Cc2cccc(OC)c2O)CC1
0.404
CC(NCc1ccccc1)c1cc(Cl)ccc1O (stereo not drawn)
0.44
Oc1ccccc1CN1CCN(C(c2ccccc2)c2ccccc2)CC1
0.437

Request body: readout viability index, system Plasmodium falciparum NF54 gametocytes, query `Cc1cc(N2CCN(C3CCCC3)CC2)n2c(nc3ccccc32)c1C#N` . Return the value.
1.15

Request body: readout viability index, system Plasmodium falciparum NF54 gametocytes, query CCCCCn1c(=N)n(CC(O)COc2cccc(C)c2)c2ccccc21 (stereo not drawn) . Return the value.
0.32

Request body: readout viability index, system Plasmodium falciparum NF54 gametocytes, query CCOc1cc2c(cc1OCC)C(c1cc(OC)c(O)cc1Cl)NCC2 (stereo not drawn) . Return the value.
0.513

Request body: readout viability index, system Plasmodium falciparum NF54 gametocytes, query `Cc1ccc(C)c(-c2csc(Nc3ccc(C)c(C)c3)n2)c1` . Return the value.
0.82

Request body: readout viability index, system Plasmodium falciparum NF54 gametocytes, query CCOc1cc(Cl)c(C(C)NC(=O)c2ccccc2)cc1OCC (stereo not drawn) . Return the value.
0.819

Request body: readout viability index, system Plasmodium falciparum NF54 gametocytes, query CCOc1c(Cl)cc(CNCC(O)c2ccccc2)cc1OC (stereo not drawn) . Return the value.
0.793

Request body: readout viability index, system Plasmodium falciparum NF54 gametocytes, query `CN1CCN(c2ncnc3c2[nH]c2ccc(Cl)cc23)CC1` . Return the value.
0.92

Request body: readout viability index, system Plasmodium falciparum NF54 gametocytes, query `Oc1ccccc1CNCC12CC3CC(CC(C3)C1)C2` . Return the value.
0.638

Request body: readout viability index, system Plasmodium falciparum NF54 gametocytes, query `Cc1ccc(-c2nc3ccccc3o2)cc1NCc1cc(Cc2ccccc2)ccc1O` . Return the value.
0.389

Request body: readout viability index, system Plasmodium falciparum NF54 gametocytes, query `COc1cc(-c2nc(-c3ccccc3)c(-c3ccccc3)[nH]2)cc(OC)c1O` . Return the value.
0.358

Request body: readout viability index, system Plasmodium falciparum NF54 gametocytes, query COc1ccc(C(=O)C(CCC(CNC(C)(C)C)C(=O)c2ccc(OC)cc2)CNC(C)(C)C)cc1 (stereo not drawn) . Return the value.
0.548

Request body: readout viability index, system Plasmodium falciparum NF54 gametocytes, query `COc1ccccc1N1C(=N)SC(=Cc2ccc(OCc3ccccc3F)cc2)C1=O` . Return the value.
0.661

Request body: readout viability index, system Plasmodium falciparum NF54 gametocytes, query CCOc1cc(Br)c(C(C)NC(=O)c2cccc(OC)c2)cc1OCC (stereo not drawn) . Return the value.
0.58

Request body: readout viability index, system Plasmodium falciparum NF54 gametocytes, query `COc1cc(C(=O)Nc2ccc(-c3nc4ccccc4[nH]3)cc2)cc(OC)c1OC` . Return the value.
1.01

Request body: readout viability index, system Plasmodium falciparum NF54 gametocytes, query COc1ccc(CN2CCCC(C(=O)c3ccc(C(F)(F)F)cc3)C2)c(O)c1 (stereo not drawn) . Return the value.
0.365

Request body: readout viability index, system Plasmodium falciparum NF54 gametocytes, query `COc1ccc(-c2nc(N3CCN(C(=O)C4CCCCC4)CC3)c3c4c(sc3n2)CCCC4)cc1` . Return the value.
1.06

Request body: readout viability index, system Plasmodium falciparum NF54 gametocytes, query `CCn1c(SCC(=O)Nc2cc(C(F)(F)F)ccc2Cl)nc2ccccc2c1=O` . Return the value.
1.17

###

# maps each entry to its viability index
# System: Plasmodium falciparum NF54 gametocytes
# Test details: viability index relative to DMSO control (fraction); higher = less gametocyte killing
# Settings: gametocyte stage: Stage II viability index; 12.5 µM; incubation time: 72 h
Number only, no unit.

Cc1sc(NC(=O)c2ccco2)c(C(c2cccnc2)N2CCC(Cc3ccccc3)CC2)c1C (stereo unspecified)
0.0408
O=C(NC1CCN(Cc2ccccc2)CC1)c1cc2nc(-c3ccc(Cl)s3)cc(C(F)(F)F)n2n1
0.366

Returns the measured viability index for the input compound. Input: `O=C(NCCCN1CCC(N2CCCCC2)CC1)C1=Cc2cc(Br)ccc2OC1`
0.427

Returns the measured viability index for the input compound. Input: `c1ccc(CNc2nc(Nc3ccccc3)nc3ccccc23)cc1`
0.211

###

# Tested on: Plasmodium falciparum NF54 gametocytes
# Test details: viability index relative to DMSO control (fraction); higher = less gametocyte killing
# Settings: gametocyte stage: Stage I viability index; 12.5 µM; incubation time: 72 h
viability index under 0.1 gets t, anything at or over 0.1 gets f.

Field: example entries. Status: answers known.
CCC(O)c1ccc(Br)cc1NC(=O)c1cccc(Cl)c1 (configuration not stated)
t
CN1c2ccccc2N(C)C1c1ccc2c(c1)OCO2
f
Cc1ccccc1OCCSc1nc2ccc(NC(=O)c3cccs3)cc2s1
f
Cc1cc(C)cc(Nc2cc(C)nc3nc(C(F)(F)F)nn23)c1
f
CCCCc1c(C)nc2c(OC)cccc2c1O
f

Field: below-cutoff. Rule: recorded viability index strictly less than 0.1. Subject: `O=C(Nc1ccc(CN2CCOCC2)cc1)c1ccc(-c2ccc(Br)cc2)o1`
f

Field: below-cutoff. Rule: recorded viability index strictly less than 0.1. Subject: `O=C(Nc1ccc(Cl)cc1)N1CCN(c2ccc3nncn3n2)CC1`
f

Field: below-cutoff. Rule: recorded viability index strictly less than 0.1. Subject: Oc1ccccc1CN1CCC2(CCCN(Cc3ccccc3F)C2)C1 (configuration not stated)
t

Field: below-cutoff. Rule: recorded viability index strictly less than 0.1. Subject: `CC(C)=CCN1CCC(C(=O)Nc2ccc(-c3nc4ccccc4[nH]3)cc2)CC1`
t

Field: below-cutoff. Rule: recorded viability index strictly less than 0.1. Subject: `CCCc1c(C)nc2ccc(Br)cc2c1O`
f

Field: below-cutoff. Rule: recorded viability index strictly less than 0.1. Subject: `Cc1cc(C)c2c(c1)OCN(Cc1ccccc1Cl)C2`
t

Field: below-cutoff. Rule: recorded viability index strictly less than 0.1. Subject: `COc1cccc(C=Cc2nc(=O)c3ccccc3o2)c1OC`
f

###

# System: Plasmodium falciparum NF54 gametocytes
# Test details: viability index relative to DMSO control (fraction); higher = less gametocyte killing
# Settings: gametocyte stage: Stage V viability index; 12.5 µM; incubation time: 72 h
# maps each entry to its viability index
Number only, no unit.

Request body: readout viability index, system Plasmodium falciparum NF54 gametocytes, query `COc1ccc(-c2nonc2NC(=O)c2cccc(C)c2)cc1OC` . Return the value.
0.571

Request body: readout viability index, system Plasmodium falciparum NF54 gametocytes, query `COc1ccc(-c2cn3c(C(=O)Nc4ccccc4Cl)c(-c4ccccc4)c4c3n2CCCC4)cc1` . Return the value.
0.779

Request body: readout viability index, system Plasmodium falciparum NF54 gametocytes, query `CCN(CC)S(=O)(=O)c1ccc(-c2csc(Nc3ccc(C)c(C)c3)n2)cc1` . Return the value.
0.352

###

# Tested on: Plasmodium falciparum NF54 gametocytes
# Test details: viability index relative to DMSO control (fraction); higher = less gametocyte killing
# Settings: gametocyte stage: Stage III viability index; 12.5 µM; incubation time: 72 h
Class membership depends on viability index alone; the intervals are Low (below 0.6), Medium (0.6 to below 0.9), High (0.9 or more)

Field: example entries. Status: answers known.
COc1cc(C(=O)Nc2nc3c(cc4c5c(cccc53)CC4)s2)cc(OC)c1OC
High
CCCCc1ccc(NS(=O)(=O)c2cc3c4c(c2)CCN4C(=O)CC3)cc1
High
Cc1cc(C)c2nc(N3CCC(C(=O)NCCCN4CCC(N5CCCCC5)CC4)CC3)sc2c1
Low

Now for a further molecule.
State the band of `Cc1ccccc1OCCSc1nc2ccc(NC(=O)c3cccs3)cc2s1`
High
